The measurements presented in this section are drawn from paper PMC9929129.

Experiment: In vivo PK study, intratracheal (IT) and intravenous (IV)
Settings: male, CD1, mouse, epithelial lining fluid, iv, […], ELF Tmax
Measured Tmax of individual entries
Metric name: Tmax (min)

>>> observed_value("CC(C)Oc1ccc(-c2ncc(CNc3ccnc(C(F)(F)F)c3)cn2)cc1Cl")
40.2
>>> observed_value("NC[C@H]1O[C@H](O[C@H]2[C@H](O)[C@@H](O[C@H]3O[C@H](CO)[C@@H](O)[C@H](N)[C@H]3O)[C@H](N)C[C@@H]2N)[C@H](N)C[C@@H]1O")
8.4

----------
Test: Kinetic turbidimetric aqueous solubility
Settings: PBS buffer, kinetic from dmso stock
Measured solubility kinetic at 5 min of individual entries
Metric name: solubility kinetic at 5 min (µM)

>>> observed_value("FC(F)(F)c1cc(NCc2ccc(-c3cnc(Cl)c(Cl)c3)cn2)ccn1 [Compound 17]")
76.2
>>> observed_value("FC(F)(F)c1cc(NCc2cnc(-c3ccc(Oc4ccccc4)cc3)nc2)ccn1 [Compound 21]")
10.9
>>> observed_value("FC(F)(F)c1cc(SCc2ccc(-c3ccc(Cl)nc3)cn2)ccn1 [Compound 13]")
42.3
>>> observed_value("FC(F)(F)c1cc(NCc2ccc(-c3ccc(Cl)cc3)cc2)ccn1 [Compound 7]")
10
